Where these numbers come from: PubChem BioAssay AID179

Listed next: entries and their corresponding log10 IC50.
Tested on: CEM cells HIV-1 protection, formazan growth assay
measurement protocol: NCI AIDS Antiviral Assay
measurement parameters: measured here: growth of uninfected CEM cells
Note the log scale: values are log10 of IC50 expressed in µM.

Example cases with answers are listed next.
compound	log10 IC50
C=C(c1cc(C(=O)OC)c(OC)c(Br)c1C)c1cc(C(=O)OC)c(OC)c(Br)c1C	1.89
O=c1ccnc(Nc2ccc[nH]c2=S)[nH]1	2.45
CN(C)CCNc1ccc(CO)c2oc3ccc(O)cc3c(=O)c12	0.06
CCN(CC)CCOC(=O)c1c(C)oc2cc3c(C(=O)OCCN(CC)CC)c(C)oc3cc12	0.78
N#CC1(c2nc3ccccc3o2)C(=O)C(=O)N(c2ccc(Cl)c(Cl)c2)C(=O)C1=O	2.45
c1ccc([P+](Cc2ccc3c(c2)OCO3)(c2ccccc2)c2ccccc2)cc1	0.53
CC1CN1c1c(C(=O)/C=C/c2ccc(F)cc2)c(-c2ccccc2)nn(C)c1=O (stereo not given)	1.04
Cn1c(=O)c2[nH]c(Nc3cccc(Cl)c3)nc2n(C)c1=O	1.03

Now look at this entry.
Here O=C(CN(C(=O)OC12CC3CC(CC(C3)C1)C2)C(=O)OC12CC3CC(CC(C3)C1)C2)Oc1ccc([N+](=O)[O-])cc1 was tested on CEM cells HIV-1 protection, formazan growth assay, and its log10 IC50 came to 0.99

* * *

Tested on: CEM cells HIV-1 protection, formazan growth assay
measurement protocol: NCI AIDS Antiviral Assay;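 active means compounds giving half or more protection of infected cells from virus-caused growth loss, again on retest; inactive means the rest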
Hi! Could you answer with just one of these? active, inactive

Reference set, count: 10
compound	label value
Cc1n[nH]c2ccc([N+](=O)[O-])cc2c1=O	inactive
COc1ccc(Cc2c(=O)[nH]nc3ccccc23)cc1	inactive
CCCCS(=O)(=O)c1ccc(O)c(C(=O)Nc2cccc(C(F)(F)F)c2)c1	inactive
O=[N+]([O-])c1ccc(OC2CC3C4C=CC3C2C4)c([N+](=O)[O-])c1 (configuration not stated)	inactive
Cc1cc2oc(=N)c(C#N)c(C)c2cc1C	inactive
CCN(/N=C1\CC2C=CCN(C2)C(=O)Cc2c1[nH]c1ccccc21)S(=O)(=O)c1ccc(C)cc1 (configuration not stated)	inactive
Cc1cc2n([O-])cccc-2[n+](=O)c1	inactive
CN(C)CCCc1cccc2[nH]c3c(c12)CN(C)CC3	inactive
CC1=NC2(CCCCC2)N(Cl)C(=O)C1SC#N (configuration not stated)	inactive
CCCCCCCCCCCCCCCCNCCCS(=O)(=O)O	inactive

Query: What did this assay record as the result for O=C(Nc1ccc(C2=NCCN2)c(O)c1)c1ccc(C(=O)Nc2ccc(C3=NCCN3)c(O)c2)cc1 ?
Response: active

Query: // outcome(item) with item = CCOP(=O)(OCC)/C(C#N)=C/c1ccco1
Response: active

Query: # lookup: test call for Cc1nn(-c2ccccc2)c(=O)n2c1nc1ccccc12
Response: inactive

Query: Field: outcome | Entry: CCN(CC)C(=S)SCn1ncc2ccc([N+](=O)[O-])cc21
Response: inactive

Query: Please share the test call associated with O=S(=O)(c1ccccc1)C1(CCC2OCCO2)C=CC2(CC1)OCCO2 (configuration not stated) .
Response: inactive

Query: For this compound, state the assay outcome: CCOC(=O)C(NC(=O)OCc1ccccc1)C(=O)O (configuration not stated)
Response: inactive

Query: Given COc1ccc(NC(=O)C(C#N)=C(SC)SC)cc1 , state the outcome it received in this test.
Response: inactive

* * *

Test system: CEM cells HIV-1 protection, formazan growth assay
measurement protocol: NCI AIDS Antiviral Assay
measurement parameters: measured here: growth of uninfected CEM cells
measured attribute: IC50

molecule	endpoint value
O=P1(Cc2ccccc2)C(c2ccccc2)=C(O)C2CCCC21 (stereo not given)	> 112 µM
COC12CCC(C(C(=O)c3ccccc3)=C1C(=O)c1ccccc1)C(O)C2 (stereo not given)	> 501 µM
Cc1nc2c(cc1C(=O)N/N=C/c1ccc([N+](=O)[O-])cc1)c(=O)n(C)c(=O)n2C	> 200 µM
CCOC(=O)c1ccc(NC(=O)Nc2cc(C)ccn2)cc1	> 200 µM

Continue with the molecule presented below.
get_value(item= O=C1C2CCCCC2C(=O)N1n1c(Cc2ccc(Cl)cc2)n[nH]c1=O (stereo not given) , readout=IC50) returns > 200 µM

* * *

System: CEM cells HIV-1 protection, formazan growth assay
measurement protocol: NCI AIDS Antiviral Assay
measurement parameters: measured here: growth of uninfected CEM cells
pIC50: −log10 of the molar value.
measured attribute: pIC50

# compound CCOC(=O)/C(C#N)=C/c1ccc(C#N)cc1 ; its pIC50 = < 4.64

pIC50 reported for this compound Cc1cc2c(c(=O)o1)C(=O)CC(C)O2 (stereo not given) : 3.93

* * *

System: CEM cells HIV-1 protection, formazan growth assay
measurement protocol: NCI AIDS Antiviral Assay
measurement parameters: measured here: growth of uninfected CEM cells
Method: The ability of compounds to protect human CEM cells from HIV-1 infection is measured as a screen for new compounds capable of inhibiting the HIV virus. Five concentrations of drug were tested on uninfected and infected cells and cell growth was measured using a soluble formazan assay. […] Compounds that provided at least 50% protection were retested. Compounds that provided at least 50% protection on retest were listed as moderately active. […]
// IC50 lookup, one value per entry
The reply should be a number in µM, with the unit left off.

Here are 5 compounds together with their reported answers.
compound	endpoint value
Cc1[nH]nc(N)c1C#N	191
CC(=O)Nc1cc(N=Nc2ccc(N=Nc3ccc(NC(=O)c4ccc(N)cc4)cc3C)cc2C)c(S(=O)(=O)O)cc1N=Nc1ccc(S(=O)(=O)O)cc1	155
COc1ccc(-c2cc(-c3ccccc3)n(C3OCC(OC(C)=O)C(OC(C)=O)C3OC(C)=O)c(=S)c2C#N)cc1 (stereo unspecified)	43.7
CSc1nc(Br)nc2ncn(C3CC(Oc4ccc(C)cc4)C(COc4ccc(C)cc4)O3)c12 (stereo unspecified)	44.7
Nc1nc(N)c(N=O)c(N)n1	170

Tested on CEM cells HIV-1 protection, formazan growth assay, the item COc1ccc(C2CCC(Cl)(OC)CC2C=O)cc1 (stereo unspecified) showed IC50 equal to 155

IC50 of Nc1ccc(S(=O)(=O)Nc2cnc3c(Cl)cccc3n2)cc1 , assay on CEM cells HIV-1 protection, formazan growth assay, is 6.46

Assay CEM cells HIV-1 protection, formazan growth assay, sample COc1ccc2nc3cccc([N+](=O)[O-])c3c(NCCCO)c2c1 , IC50 read: 0.017

Log: CEM cells HIV-1 protection, formazan growth assay, compound S=C(N/N=C(/c1ccccc1)c1ccccn1)N1CCCCC1 , IC50 = 0.0389

# value of IC50, CEM cells HIV-1 protection, formazan growth assay, item CC1OC2(CC(OCc3ccccc3)C1OCc1ccccc1)OCCO2 (stereo unspecified) = 29.5

Form: item C[N+](C)([O-])CCC=C1c2ccccc2CCc2ccccc21 ; test system CEM cells HIV-1 protection, formazan growth assay; IC50: 105

Reported IC50 (CEM cells HIV-1 protection, formazan growth assay) for entry COC(=O)C1(C(=O)OC)CC(=O)c2c(OC(=O)c3cccc(OC)c3C#N)ccc(OC(=O)c3cccc(OC)c3C#N)c2C1 is 29.5

Sample COc1cc(C2SCC(=O)N2c2ccc(Oc3ccc(Cl)cc3)c(Cl)c2)cc(OC)c1OC (stereo unspecified) , system: CEM cells HIV-1 protection, formazan growth assay. Its IC50 is 20

c1scc2c1COCCOCCOCCOCCOCCOC2 on CEM cells HIV-1 protection, formazan growth assay gives IC50 = 646

Lab note: compound O=S1(=O)C=Cc2ccccc2CC1 tested on CEM cells HIV-1 protection, formazan growth assay; recorded IC50 was 741

* * *

System: CEM cells HIV-1 protection, formazan growth assay
measurement protocol: NCI AIDS Antiviral Assay;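 active means compounds giving half or more protection of infected cells from virus-caused growth loss, again on retest; inactive means the rest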
Answer with one of the outcomes given here: active, inactive

Completed entries (count: 3):
molecule	label value
O=S1(=O)C[C@@H](O)[C@H](O)CS1	active
O=C(C[n+]1ccccc1)NNC(=O)/C(=C/c1ccc2c(c1)OCO2)NC(=O)c1ccccc1	inactive
NC(=O)Cc1nc2c(N)ncnc2n1C1OC(CO)C(O)C1O (stereo unspecified)	inactive

Query: Recorded test call requested for COc1cc(/C=C(\C#N)C(=O)c2ccccc2)cc(OC)c1OC
Response: inactive

Query: I'd appreciate the recorded outcome for COc1cc(/C=N\NS(=O)(=O)c2ccc([N+](=O)[O-])cc2)c([N+](=O)[O-])cc1OC from this test.
Response: inactive

Query: // outcome(item) with item = O=C(NC(=O)c1c(Cl)nc2sccn12)Nc1ccc(Cl)cc1
Response: inactive

Query: Tell me the assay call for CCC(=O)c1c(O)c2ccccc2oc1=O please.
Response: inactive

* * *

System: CEM cells HIV-1 protection, formazan growth assay
measurement protocol: NCI AIDS Antiviral Assay
measurement parameters: measured here: growth of uninfected CEM cells
Procedure: The ability of compounds to protect human CEM cells from HIV-1 infection is measured as a screen for new compounds capable of inhibiting the HIV virus. Five concentrations of drug were tested on uninfected and infected cells and cell growth was measured using a soluble formazan assay. […] Compounds that provided at least 50% protection were retested. Compounds that provided at least 50% protection on retest were listed as moderately active. […]
pIC50: −log10 of the molar value.
Listed below: pIC50 values for each entry.

Answered examples (3):
molecule	measured target	measured attribute	endpoint value
O=C(O)c1ccccc1-n1nc(C(=O)O)c(N=Nc2ccc(/C=C/c3ccc(N=Nc4c(C(=O)O)nn(-c5ccccc5C(=O)O)c4O)cc3S(=O)(=O)O)c(S(=O)(=O)O)c2)c1O.[Cu+2].[Na+]	CEM cells HIV-1 protection, formazan growth assay	pIC50	< 6.32
COc1cc2c3c(c1)[nH]c(=S)n3C(=O)CCS2	CEM cells HIV-1 protection, formazan growth assay	pIC50	< 4.00
NCC1(N2CCOCC2)C2CCCC21CO (stereo not given)	CEM cells HIV-1 protection, formazan growth assay	pIC50	< 2.96

CEM cells HIV-1 protection, formazan growth assay assay, molecule O=C1CCCCCCCCCCC1Sc1ccccc1 (stereo not given) , recorded pIC50 = < 4.91

Record CCCCc1nc(C)oc1C(C)C / CEM cells HIV-1 protection, formazan growth assay, pIC50 recorded as < 3.70
